Could you please report measured pIC50 for the items listed next?
Test system: A549
Assay name: Antiproliferative activity against human A549 cells after 72 hrs by MTT assay
Assay type: functional, cell-based
Settings: A549, 72 h
Note: pIC50 values are expressed as the negative base-10 logarithm of concentration in M.

Data request: Requested field: pIC50. Item: "COc1cc(N(C)CCN(C)C)c(NC(=O)/C=C\C(C)C)cc1Nc1nc(C)cc(-c2cn(C)c3ccccc23)n1"
Data returned: 5.97

Data request: Requested field: pIC50. Item: "CC/C=C\C(=O)Nc1cc(Nc2nccc(-c3cn(C)c4ccccc34)n2)c(OC)cc1N(C)CCN(C)C"
Data returned: 5.81

Data request: Requested field: pIC50. Item: "C=CC(=O)Nc1cc(Nc2nccc(-c3cn(C)c4ccc(F)cc34)n2)c(OC)cc1N(C)CCN(C)C"
Data returned: 6.48

Data request: Requested field: pIC50. Item: "CC/C=C\C(=O)Nc1cc(Nc2ncc(C#N)c(-c3cn(C)c4ccc(F)cc34)n2)c(OC)cc1N(C)CCN(C)C"
Data returned: 5.33

Data request: Requested field: pIC50. Item: "CCC/C=C\C(=O)Nc1cc(Nc2nccc(-c3cn(C)c4ccccc34)n2)c(OC)cc1N(C)CCN(C)C"
Data returned: 6.09

Data request: Requested field: pIC50. Item: "CCC/C=C\C(=O)Nc1cc(Nc2nc(C)cc(-c3cn(C)c4ccccc34)n2)c(OC)cc1N(C)CCN(C)C"
Data returned: 6.48

Data request: Requested field: pIC50. Item: "C=CC(=O)Nc1cc(Nc2nc(C)cc(-c3cn(C)c4ccc(F)cc34)n2)c(OC)cc1N(C)CCN(C)C"
Data returned: 5.83

Data request: Requested field: pIC50. Item: "COc1cc(N(C)CCN(C)C)c(NC(=O)/C=C\C(C)C)cc1Nc1nccc(-c2cn(C)c3ccccc23)n1"
Data returned: 6.21

* * *

Could you please report measured IC50 for the items listed next?
Target system: Epidermal growth factor receptor (Homo sapiens, UniProt P00533, L858R/T790M)
Sequence (P00533 25-1210 T790M/L858R limits assumed): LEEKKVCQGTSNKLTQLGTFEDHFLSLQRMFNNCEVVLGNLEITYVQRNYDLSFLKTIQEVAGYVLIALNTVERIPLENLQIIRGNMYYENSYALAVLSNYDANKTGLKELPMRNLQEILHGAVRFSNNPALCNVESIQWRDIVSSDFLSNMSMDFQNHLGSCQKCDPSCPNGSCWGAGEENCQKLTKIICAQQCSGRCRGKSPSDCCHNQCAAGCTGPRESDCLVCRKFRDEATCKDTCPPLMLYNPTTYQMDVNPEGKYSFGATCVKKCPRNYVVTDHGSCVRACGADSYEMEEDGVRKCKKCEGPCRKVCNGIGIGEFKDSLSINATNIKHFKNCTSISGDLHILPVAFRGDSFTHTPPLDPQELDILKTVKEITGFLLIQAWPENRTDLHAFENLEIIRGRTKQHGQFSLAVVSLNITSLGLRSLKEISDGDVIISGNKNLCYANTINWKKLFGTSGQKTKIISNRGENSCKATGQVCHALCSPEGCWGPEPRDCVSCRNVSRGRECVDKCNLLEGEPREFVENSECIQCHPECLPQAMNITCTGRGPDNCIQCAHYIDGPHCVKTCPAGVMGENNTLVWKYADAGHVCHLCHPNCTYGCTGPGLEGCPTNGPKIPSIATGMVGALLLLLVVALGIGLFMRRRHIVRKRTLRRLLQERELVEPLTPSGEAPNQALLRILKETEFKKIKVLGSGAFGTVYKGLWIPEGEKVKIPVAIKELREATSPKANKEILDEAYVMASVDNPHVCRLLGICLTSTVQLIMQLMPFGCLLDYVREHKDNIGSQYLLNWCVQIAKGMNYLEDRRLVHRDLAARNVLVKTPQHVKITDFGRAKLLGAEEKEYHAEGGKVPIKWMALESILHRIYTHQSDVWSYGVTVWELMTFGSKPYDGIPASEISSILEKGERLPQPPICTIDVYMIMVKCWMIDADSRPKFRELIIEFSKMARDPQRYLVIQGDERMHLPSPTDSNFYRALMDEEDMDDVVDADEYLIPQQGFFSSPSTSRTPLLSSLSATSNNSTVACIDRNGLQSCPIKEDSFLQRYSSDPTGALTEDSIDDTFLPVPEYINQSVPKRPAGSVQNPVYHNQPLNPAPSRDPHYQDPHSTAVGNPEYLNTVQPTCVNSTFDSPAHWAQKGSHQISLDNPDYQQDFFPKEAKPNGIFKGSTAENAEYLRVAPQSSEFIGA
Assay name: Inhibition of EGFR T790M/L858R double mutant (unknown origin) using substrate-biotin by ELISA-based mobility shift assay

Data request: Requested field: IC50. Item: "C=CC(=O)Nc1cc(Nc2ncc(C#N)c(-c3cn(C)c4ccc(F)cc34)n2)c(OC)cc1N(C)CCN(C)C"
Data returned: > 2 µM

Data request: Requested field: IC50. Item: "COc1cc(N(C)CCN(C)C)c(NC(=O)/C=C\C(C)C)cc1Nc1nccc(-c2cn(C)c3ccc(F)cc23)n1"
Data returned: > 2 µM

Data request: Requested field: IC50. Item: "CC/C=C\C(=O)Nc1cc(Nc2ncc(C#N)c(-c3cn(C)c4ccc(F)cc34)n2)c(OC)cc1N(C)CCN(C)C"
Data returned: > 2 µM

* * *

Measured quantity: IC50

Data request: Form field: IC50 recorded for "CC/C=C\C(=O)Nc1cc(Nc2ncc(C#N)c(-c3cn(C)c4ccc(F)cc34)n2)c(OC)cc1N(C)CCN(C)C" with Epidermal growth factor receptor (Homo sapiens) (enter value)
Data returned: > 2000 nM

Data request: Form field: IC50 recorded for "COc1cc(N(C)CCN(C)C)c(NC(=O)/C=C\C(C)C)cc1Nc1nc(C)cc(-c2cn(C)c3ccc(F)cc23)n1" with Epidermal growth factor receptor (Homo sapiens) (enter value)
Data returned: > 2000 nM

Data request: Form field: IC50 recorded for "CC/C=C\C(=O)Nc1cc(Nc2nc(C)cc(-c3cn(C)c4ccc(F)cc34)n2)c(OC)cc1N(C)CCN(C)C" with Epidermal growth factor receptor (Homo sapiens) (enter value)
Data returned: > 2000 nM
